All values here come from patent US8394823B2.

- testSystem: recombinant human DGAT1 (Homo sapiens, UniProt O75907)
- Sequence (O75907 1-488): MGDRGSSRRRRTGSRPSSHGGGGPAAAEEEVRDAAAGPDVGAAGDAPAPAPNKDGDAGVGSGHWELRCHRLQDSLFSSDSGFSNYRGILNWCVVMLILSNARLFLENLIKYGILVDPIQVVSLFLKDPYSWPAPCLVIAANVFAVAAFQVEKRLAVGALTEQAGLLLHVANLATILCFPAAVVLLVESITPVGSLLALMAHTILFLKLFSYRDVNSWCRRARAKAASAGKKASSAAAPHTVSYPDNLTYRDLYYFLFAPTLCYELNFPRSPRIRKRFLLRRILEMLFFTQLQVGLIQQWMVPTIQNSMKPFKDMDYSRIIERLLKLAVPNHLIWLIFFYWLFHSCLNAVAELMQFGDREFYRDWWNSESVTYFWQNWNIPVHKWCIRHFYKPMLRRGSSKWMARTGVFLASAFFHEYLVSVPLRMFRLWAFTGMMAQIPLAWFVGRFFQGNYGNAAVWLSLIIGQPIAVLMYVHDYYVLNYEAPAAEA
- protocol: DGAT1 enzyme assay
- experimentalParameters: membranes from Sf9 insect cells expressing recombinant human DGAT1; 25 μM 2-monooleoyl-glycerol, 25 μM [3H]-stearoyl-CoA, pH 7.4, 30 min, 25° C., SPA
observationType: IC50 (µM)

A: COC(=O)[C@@H](Cc1nnc2cc(-c3ccc(Nc4nc5ccc(Cl)cc5s4)cc3)ccn12)C(C)C
B: O=C(O)[C@@H](Cc1nnc2cc(-c3ccc(Nc4nc5ccc(Cl)cc5s4)cc3)ccn12)C1CCCCC1
C: CC(C)[C@@H](Cc1nnc2cc(-c3ccc(Nc4nc5ccc(Cl)cc5s4)cc3)ccn12)C(=O)O
D: COC(=O)[C@@H](Cc1nnc2cc(-c3ccc(Nc4nc5ccc(Cl)cc5s4)cc3)ccn12)CC(C)C
[ask] Arrange by IC50, high to low. Arrange the labels as the request states and list them.
[reply] D, A, B, C
